Test system: A549 cells
Settings: 10 µM
# if measured Cell Viability < 80%: criterion met  # else: criterion not met

Known results for compounds:
[Q] Cell Viability strictly < 80% for this compound? COc1nc2ccc(Br)cc2cc1C(c1ccccc1)C1(O)CCN(C)CC1 (stereo not drawn)
[A] criterion met

[Q] Cell Viability strictly < 80% for this compound? CN(C)Cc1cccc(-c2cc3cc(Br)ccc3nc2OCc2cccc3ccccc23)c1
[A] criterion met

[Q] Cell Viability strictly < 80% for this compound? CN(C)CCc1cccc(-c2cc3cc(Br)ccc3nc2OCc2cccc3ccccc23)c1
[A] criterion not met

[Q] Cell Viability strictly < 80% for this compound? COc1nc2ccccc2cc1C(c1ccccc1)n1c(=O)n(CCN(C)C)c2ccccc21 (stereo not drawn)
[A] criterion not met

[Q] Cell Viability strictly < 80% for this compound? COc1nc2ccccc2cc1C(O)(Cc1cccc(F)c1)c1cccc(CN(C)C)c1 (stereo not drawn)
[A] criterion met

[Q] Cell Viability strictly < 80% for this compound? CN(C)Cc1ccc(-c2cc3cc(Br)ccc3nc2OCc2c(F)cccc2F)cc1
[A] criterion met

Further cases:
[Q] Cell Viability strictly < 80% for this compound? Brc1ccc2nc(OCc3cccc4ccccc34)c(-c3ccc(CN4CCN(Cc5ccccc5)CC4)cc3)cc2c1
[A] criterion not met

[Q] Cell Viability strictly < 80% for this compound? CN(C)Cc1cccc(-c2cc3cc(Br)ccc3nc2Oc2ccncc2)c1
[A] criterion not met

[Q] Cell Viability strictly < 80% for this compound? CN(C)Cc1ccc(-c2cc3cc(Br)ccc3nc2N2CCCCC2)cc1
[A] criterion not met

###

Please provide measured SI (CC50/IC50) for the entries that follow.
Tested on: HIV-1/EBOV pseudovirus
Answers are plain numbers.

Please supply SI (CC50/IC50) for each of the following items, keeping them in order.
1. CN(C)Cc1ccc(-c2cc3cc(Br)ccc3nc2OCc2ccc(Cl)cc2)cc1 [SYL1712]
2. COc1ccc(CC(O)(c2ccccc2CN(C)C)c2cc3cc(Br)ccc3nc2OC)cc1 (stereo not shown) [SYL1655]
3. COC1=Nc2ccccc2C(C2(c3ccccc3)CCN(C)CC2)C1C(=O)c1ccccc1 (stereo not shown) [SYL1660]
4. COc1cccc(COc2nc3ccc(Br)cc3cc2-c2cccc(CN(C)C)c2)c1 [SYL1657]
5. Brc1ccc2nc(OCc3cccc4ccccc34)c(-c3ccc(CNC45CC6CC(CC(C6)C4)C5)cc3)cc2c1 [SYL1683]
6. CN(C)Cc1ccc(-c2cc3cc(Br)ccc3nc2-n2ccnc2)cc1 [SYL1711]

[A]
1. 225.9
2. 49.9
3. 71.6
4. 60.3
5. 80.3
6. 58.9

Please supply SI (CC50/IC50) for each of the following items, keeping them in order.
1. COc1nc2ccccc2cc1C(c1ccccc1)C(O)(CC(=O)N(C)C)c1cccc2ccccc12 (stereo not shown) [SYL1642]
2. Brc1ccc2nc(OCc3cccc4ccccc34)c(-c3cnn(C4CCCCO4)c3)cc2c1 (stereo not shown) [SYL1658]
3. COc1nc2ccccc2cc1C(O)(Cc1cccc(F)c1)c1ccccc1CN(C)C (stereo not shown) [SYL1640]
4. COc1nc2ccc(Br)cc2cc1C(O)(CCc1ccccc1)c1ccccc1CN(C)C (stereo not shown) [SYL1654]

[A]
1: 29.2; 2: 12.7; 3: 64.3; 4: 44.7

###

Please provide measured Inhibition HIV/LASV for the entries that follow.
System: HIV-1/LASV pseudovirus
Assay: microbe, parasite or virus in culture
Format: cell-based
Conditions: 10 µM
One number for each entry, in %.

[Q] Lookup: Inhibition HIV/LASV / HIV-1/LASV pseudovirus / COc1cccc(COc2nc3ccc(Br)cc3cc2-c2ccc(CN(C)C)cc2)c1
[A] 78.74

[Q] Lookup: Inhibition HIV/LASV / HIV-1/LASV pseudovirus / Fc1cccc(COc2nc3ccc(Br)cc3cc2-c2cccc(Oc3ccccn3)c2)c1
[A] 89.08

[Q] Lookup: Inhibition HIV/LASV / HIV-1/LASV pseudovirus / COc1cc(-c2cc3cc(Br)ccc3nc2OCc2cccc3ccccc23)ccc1CN(C)C
[A] 81.68

[Q] Lookup: Inhibition HIV/LASV / HIV-1/LASV pseudovirus / COc1nc2ccc(Br)cc2cc1-c1ccc(CN(C)C)cc1
[A] 88.23

Please find the next compound below.
[Q] Lookup: Inhibition HIV/LASV / HIV-1/LASV pseudovirus / CN(C)Cc1ccc(-c2cc3cc(Br)ccc3nc2OCc2cccc3ccccc23)c(F)c1
[A] 94.69
